- Target entity: Nonstructural protein 3 (Zika virus)
- Measurement conditions: PRVABC59, Concentration 15.0 uM, Number of replicates 1.0
- Description: Functional biochemical assay to identify treatments for viral infectious disease that targets Zika NS2B-NS3 protease. Utilizing a direct enzyme activity measurement method, reading the fluorescence intensity is used to characterize the relative potency of inhibitors as % inhibition.
Among all 2,700 compounds or so, about 160 (5.9%) showed an effect of 50% or more. This is one part of a sample in which strong results are shown more often than they occur.
# binarize inhibition: threshold 30% inclusive, high side Fulfilled, low side Not fulfilled

Please review the entries below; each comes with its answer.
INSERT INTO measurements (smiles_record, target_entity, label_value) VALUES
  ('O=C(N[C@H](CO)CC1CCCCC1)c1cc(Cl)ccc1NS(=O)(=O)c1ccc(Oc2ccccc2Cl)cc1', 'Nonstructural protein 3 (Zika virus)', 'Fulfilled'),
  ('COc1c(Cl)cccc1NC(=O)c1cc(Cl)ccc1NS(=O)(=O)c1ccc(Oc2ccccc2Cl)cc1', 'Nonstructural protein 3 (Zika virus)', 'Fulfilled'),
  ('O=C(N[C@@H](c1ccccc1)c1ccc(Br)cc1)c1cc(Cl)ccc1NS(=O)(=O)c1ccc(Oc2ccccc2Cl)cc1', 'Nonstructural protein 3 (Zika virus)', 'Not fulfilled'),
  ('O=C(N[C@@H](CO)Cc1ccccc1)c1cc(Cl)ccc1NS(=O)(=O)c1ccc(Oc2ccccc2Cl)cc1', 'Nonstructural protein 3 (Zika virus)', 'Fulfilled'),
  ('O=C(NCC(c1ccccc1)c1ccccc1)c1cc(Cl)ccc1NS(=O)(=O)c1ccc(Oc2ccccc2Cl)cc1', 'Nonstructural protein 3 (Zika virus)', 'Not fulfilled');

Hello, I need to know if COc1cc(NC(=O)c2cc(Cl)ccc2NS(=O)(=O)c2ccc(Oc3ccccc3Cl)cc2)c(Cl)cc1Cl has measured inhibition not below 30%. Thanks!
Fulfilled

Check this molecule for inhibition at or above 30%: CNC(=O)c1ccccc1NC(=O)c1cc(Cl)ccc1NS(=O)(=O)c1ccc(Oc2ccccc2Cl)cc1
Not fulfilled

Form field: inhibition at least 30%? Entry: O=C(N[C@@H](Cc1ccccc1)c1ccccc1)c1cc(Cl)ccc1NS(=O)(=O)c1ccc(Oc2ccccc2Cl)cc1
Not fulfilled

---

- Target entity: Nonstructural protein 3 (Zika virus) (UniProt A0A024AXB9)
- Sequence (A0A024AXB9 as listed by the source): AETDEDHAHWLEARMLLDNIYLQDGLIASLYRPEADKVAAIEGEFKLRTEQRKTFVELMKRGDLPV
- Measurement conditions: PRVABC59, Concentration 50.0 uM, Number of replicates 1.0
Among all 2,700 compounds or so, about 160 (5.9%) showed an effect of 50% or more. The list comes from a sample in which strong results are over-represented; it also holds close analogues and randomly drawn compounds.
# inhibition per record follows
Please respond with the number in % and leave the unit unwritten.

# example entries with known answers
INSERT INTO measurements (smiles_record, target_entity, observed_value) VALUES
  ('O=Cc1ccc(N2CCC(C(=O)Nc3c(Cl)cc(Cl)cc3Br)CC2)cc1', 'Nonstructural protein 3 (Zika virus) (UniProt A0A024AXB9)', 22.3),
  ('O=Cc1ccc(N2CCC(C(=O)Nc3cc(Cl)c(F)cc3F)CC2)cc1', 'Nonstructural protein 3 (Zika virus) (UniProt A0A024AXB9)', 26.1),
  ('O=Cc1ccc(N2CCC(C(=O)Nc3ccc(Cl)c(Cl)c3)CC2)cc1', 'Nonstructural protein 3 (Zika virus) (UniProt A0A024AXB9)', 22.8),
  ('CN1CCN(C(=O)C2CCN(C(=O)C3CCN(c4ccc(C=O)cc4)CC3)CC2)CC1', 'Nonstructural protein 3 (Zika virus) (UniProt A0A024AXB9)', 21.1),
  ('O=Cc1ccc(N2CCC(C(=O)NC[C@@H](c3ccc(Cl)cc3)N3CCCC3)CC2)cc1', 'Nonstructural protein 3 (Zika virus) (UniProt A0A024AXB9)', 18.7),
  ('O=Cc1ccc(N2CCC(C(=O)Nc3ccc(Br)c(Cl)c3Cl)CC2)cc1', 'Nonstructural protein 3 (Zika virus) (UniProt A0A024AXB9)', 20.9);

Consider the additional compound presented here.
Which inhibition is reported with Nonstructural protein 3 (Zika virus) (UniProt A0A024AXB9) for this entry: O=Cc1ccc(N2CCC(C(=O)Nc3cc(Cl)ccc3Br)CC2)cc1 ?
19.5
